# Assay target: Proteinase-activated receptor 1 (Homo sapiens)
# Procedure summary: Inhibition of SFLLRN-NH2-stimulated PAR1-mediated platelet activation in […] assessed as surface expression of P-selectin at 10 uM after 20 mins by flow cytometry
# Assay type: cell-based
Give measured inhibition for each item. Keep answers brief.
Enter your answer as a number in %; do not include the unit.

Sample CCCC(=O)Nc1cccc(NC(=O)c2ccc(Cl)cc2)c1 — what was its inhibition?
80

Sample CCCC(=O)Nc1cccc(C(=O)Nc2ccccc2Cl)c1 — what was its inhibition?
67

Sample CCCC(=O)Nc1ccc2nc(-c3ccccc3Br)[nH]c2c1 — what was its inhibition?
39

Sample CCCC(=O)Nc1cccc(NC(=O)c2ccc(S(C)(=O)=O)cc2)c1 — what was its inhibition?
10

Sample CC(=O)Nc1cccc(NC(=O)c2ccccc2Cl)c1 — what was its inhibition?
35

Sample CCCC(=O)Nc1cccc(NC(=O)c2cccc([N+](=O)[O-])c2)c1 — what was its inhibition?
55

Sample O=C(Nc1cccc(NC(=O)c2ccccc2Br)c1)c1ccccc1 — what was its inhibition?
67

Sample CCCC(=O)Nc1cccc(NC(=O)c2ccccc2C(F)(F)F)c1 — what was its inhibition?
99

Sample CCCC(=O)Nc1cccc(NC(=O)c2cccc(C)c2)c1 — what was its inhibition?
88

Sample O=C(Nc1cccc(N2CCCCC2=O)c1)c1ccccc1Br — what was its inhibition?
9

Sample CCCC(=O)Nc1cccc(NC(=O)c2ccccc2)c1 — what was its inhibition?
64

Sample CCCC(=O)Nc1cccc(NC(=O)c2cccc(NC(C)=O)c2)c1 — what was its inhibition?
55

Sample CCCC(=O)Nc1cccc(NC(=O)c2c(C)cccc2C)c1 — what was its inhibition?
98

Sample CCCC(=O)Nc1cccc(NC(=O)c2ccco2)c1 — what was its inhibition?
30

Sample CCC(=O)Nc1cccc(NC(=O)c2ccccc2C)c1C — what was its inhibition?
5

Sample CCCC(=O)Nc1ccc(Cl)c(NC(=O)c2ccccc2Br)c1 — what was its inhibition?
35

Sample CCCC(=O)Nc1cccc(NC(=O)c2ccc(OC)cc2)c1 — what was its inhibition?
15

Recorded values, source ChEMBL document CHEMBL2046322.
